SYSTEM_UNDER_TEST: Phosphoethanolamine/phosphocholine phosphatase (Homo sapiens)
ASSAY_REMARKS: PubChem AID 1565
REPORTED_CONDITIONS: recombinant PHOSPHO1, absorbance phosphatase assay; at 13.3 µM; active compounds read high
The campaign covered roughly 290,000 compounds. About 3,200 (1.1%) were called active. For the sample, actives were picked, then their nearest neighbours and some compounds at random.
READOUT_LABEL: inhibition

# count of solved cases: 8
Recall and state the measured inhibition for `CCOC(=O)c1c(NC(=O)CSc2nccc(=O)[nH]2)sc(C)c1C` .
22.2% (inactive)

Recall and state the measured inhibition for `CC1CCN(C(=O)/C(=C\c2ccccc2F)NC(=O)c2ccccc2)CC1` .
18.7% (inactive)

Recall and state the measured inhibition for `Cc1ccc(OCC(=O)N/N=C\c2ccco2)c(C)c1` .
61.1% (active)

Recall and state the measured inhibition for Cc1cccc(C)c1NC(=O)C(Cl)C(=O)c1ccccc1 (stereo unspecified) .
20% (inactive)

Recall and state the measured inhibition for `CCOC(=O)c1c(-n2cnnn2)sc(C)c1C` .
98.7% (active)

Recall and state the measured inhibition for O=C(C1CC1)N1N=C(c2ccc(Br)cc2)CC1(O)C(F)(F)F (stereo unspecified) .
15.6% (inactive)

Recall and state the measured inhibition for `COc1ccccc1C(=O)Nc1ccnn1C1CCN(Cc2cnn(C)c2)CC1` .
38.1% (inactive)

Recall and state the measured inhibition for `Cn1cc(S(=O)(=O)Nc2ccc(Cl)cc2Cl)c(=O)n(C)c1=O` .
20.2% (inactive)

More entries:
Recall and state the measured inhibition for COc1cc2[nH]c(=S)n(CCN3CCCCC3C)c(=O)c2cc1OC (stereo unspecified) .
24.2% (inactive)

Recall and state the measured inhibition for O=C(C1CC1)N1N=C2CCCCC2C1(O)C(F)(F)F (stereo unspecified) .
60.9% (active)

Recall and state the measured inhibition for `COc1cc2[nH]c(=S)n(Cc3ccc(C)o3)c(=O)c2cc1OC` .
69.6% (active)

----------
SYSTEM_UNDER_TEST: Phosphoethanolamine/phosphocholine phosphatase (Homo sapiens) (UniProt Q8TCT1)
Sequence (Q8TCT1 whole entry, looked up): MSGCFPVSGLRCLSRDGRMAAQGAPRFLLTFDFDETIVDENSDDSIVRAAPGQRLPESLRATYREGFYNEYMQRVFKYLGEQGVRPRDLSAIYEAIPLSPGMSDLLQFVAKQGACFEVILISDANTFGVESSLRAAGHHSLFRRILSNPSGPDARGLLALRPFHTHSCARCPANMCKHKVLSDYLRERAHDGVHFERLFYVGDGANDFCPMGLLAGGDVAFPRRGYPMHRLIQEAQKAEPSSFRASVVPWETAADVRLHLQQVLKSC
ASSAY_REMARKS: PubChem AID 1565
REPORTED_CONDITIONS: recombinant PHOSPHO1, absorbance phosphatase assay; at 13.3 µM
In all, about 290,000 compounds went through this assay and about 3,200 (1.1%) were called active. Rule as the data show it: active = inhibition above about 60%; inactive = the rest. For the sample, actives were picked, then their nearest neighbours and some compounds at random.
Write down one outcome, taken from yes for active, no for inactive

// outcome(item) with item = `COCCCn1c(SCC(=O)Nc2ccccc2)nnc1-c1ccncc1`
no

// outcome(item) with item = `Cc1ccc(C(=O)Oc2coc(CSc3nnc(NC(=O)c4cccs4)s3)cc2=O)cc1C`
no

// outcome(item) with item = Cc1ccc(NC(=O)C2CC2c2ccccc2)cc1 (stereo not given)
no

// outcome(item) with item = `O=C(NCCOc1cccnc1)c1ccc(OC2CCN(Cc3ccccn3)CC2)cc1`
no

// outcome(item) with item = `CCOC(=O)N1CCN(CC(=O)Nc2ccc(F)cc2)CC1`
yes

More entries:
// outcome(item) with item = `c1nnc2c3c4c(sc3ncn12)CCC4`
no

// outcome(item) with item = `O=C(O)c1ccccc1CSc1nc2ccccc2s1`
no

// outcome(item) with item = `COc1ccc(OCc2n[nH]c(=S)n2N)cc1`
yes

// outcome(item) with item = `O=c1[nH]c(CSc2ncc(-c3ccc(F)cc3)n2Cc2ccco2)nc2ccccc12`
yes

// outcome(item) with item = `COCc1ccc(CN2CCC(Oc3ccc(C(=O)NCc4ccccn4)cc3)CC2)o1`
yes

// outcome(item) with item = `CCOC(=O)Cc1csc(SCc2cc(=O)oc3cc(O)ccc23)n1`
no

// outcome(item) with item = O=C1CCC(C(=O)N2CCC(O)(c3ccccc3)CC2)CN1CCc1ccccc1 (stereo not given)
no

// outcome(item) with item = Cn1cc(CN2CCC(C(O)CCc3ccccc3)CC2)c(-c2ccccc2F)n1 (stereo not given)
no

// outcome(item) with item = `S=c1[nH]nc(COc2ccccc2)n1-c1ccccc1`
no

----------
The following compounds are listed with their measured inhibition values.
SYSTEM_UNDER_TEST: Phosphoethanolamine/phosphocholine phosphatase (Homo sapiens) (UniProt Q8TCT1)
ASSAY_REMARKS: PubChem AID 1565
REPORTED_CONDITIONS: recombinant PHOSPHO1, absorbance phosphatase assay; at 13.3 µM; active compounds read high
Among all 290,000 compounds or so, about 3,200 (1.1%) were called active. Many of the other results were omitted from the sample, so actives are more common in it than they were.
Please reply with the bare figure in % and do not write the unit itself.

Recall and state the measured inhibition for `Cc1ccc(C(=O)Nc2nnc(-c3cccs3)s2)cc1C` .
60.1

Recall and state the measured inhibition for COC(=O)c1ccccc1SC1CC(=O)N(c2cccc(C)c2)C1=O (configuration not stated) .
-11.7

Recall and state the measured inhibition for `CCOc1cccc(C(=O)Nc2nnc(-c3cccs3)s2)c1` .
8.6

Recall and state the measured inhibition for `CCc1nc2cccnc2n1-c1ccc(C(=O)O)cc1` .
35.1

Recall and state the measured inhibition for `COc1cccc(CNC(=O)c2nnn(CC(=O)Nc3cc(C)ccc3C)c2N)c1` .
37.5

Recall and state the measured inhibition for O=C1CC(N2CCN(c3ccc(F)cc3)CC2)C(=O)N1c1ccccc1 (configuration not stated) .
-16.5

----------
SYSTEM_UNDER_TEST: Phosphoethanolamine/phosphocholine phosphatase (Homo sapiens) (UniProt Q8TCT1)
ASSAY_REMARKS: PubChem AID 1565
REPORTED_CONDITIONS: recombinant PHOSPHO1, absorbance phosphatase assay; at 13.3 µM
The campaign covered roughly 290,000 compounds. About 3,200 (1.1%) were called active. No stated cut-off is given here; in the data, active means inhibition above about 60%; inactive means the rest. What follows is part of a selection rich in actives, with near analogues and random picks from the rest.
Write down one outcome, taken from active, inactive

Consider the worked cases shown below.
// outcome(item) with item = `Cc1[nH]c(C)c(S(=O)(=O)N2CCN(c3cccc(C(F)(F)F)c3)CC2)c1C(=O)N1CCCC1`
inactive

// outcome(item) with item = `Cc1ccc(Nc2nc(N3CCOCC3)nc(N3CCOCC3)n2)cc1Cl`
inactive

// outcome(item) with item = `CCOC(=O)Cc1csc(NC(=O)CSc2nnc(-c3cccnc3)n2Cc2ccco2)n1`
inactive

// outcome(item) with item = `Cc1ccc(C(=O)Nc2nnc(C3=COCCO3)o2)cc1C`
inactive

// outcome(item) with item = `Oc1ccccc1CN1CCN(C(c2ccccc2)c2ccccc2)CC1`
inactive

// outcome(item) with item = `Cc1ccc2[nH]c(=O)c(CC(=O)O)c(-c3ccccc3)c2c1`
inactive

// outcome(item) with item = CCN1CCN(C(c2cccnc2)c2cc(Cl)c3cccnc3c2O)CC1 (stereo unspecified)
active

// outcome(item) with item = `COc1ccc(Cc2nnc(SCC(=O)c3cccc([N+](=O)[O-])c3)n2C)cc1`
active

// outcome(item) with item = `O=C(CSc1nnc(-c2cccnc2)n1CCc1ccccc1)NCc1ccccc1`
inactive

// outcome(item) with item = `CCn1cc(/C=C(\NC(=O)c2cc(OC)c(OC)c(OC)c2)C(=O)N2CCN(C)CC2)c2ccccc21`
inactive

More entries:
// outcome(item) with item = `C(=C\c1ccccc1)/CSc1nnc(-c2cccnc2)n1Cc1ccco1`
active

// outcome(item) with item = `O=C(CSc1nc(Nc2ccccc2)nc(N2CCOCC2)n1)Nc1cc(Cl)ccc1O`
active

// outcome(item) with item = `NS(=O)(=O)c1ccc(NC(=O)COC(=O)c2ccc(Cl)nc2)cc1`
inactive

// outcome(item) with item = COc1ccccc1NC(=O)C1CCCN1S(=O)(=O)c1ccc(Cl)cc1 (stereo unspecified)
inactive

// outcome(item) with item = `COc1ccc(-n2cnnc2SCC(=O)Nc2cccc([N+](=O)[O-])c2)cc1`
inactive

// outcome(item) with item = `CCC(C)(C)NC(=O)CN(C(=O)CCC(=O)Nc1nccs1)c1ccc2c(c1)OCO2`
inactive

// outcome(item) with item = COC(=O)[C@@H]1CC(O)CN1C(=O)C12CC3CC(CC(C3)C1)C2 (stereo partly specified)
inactive

// outcome(item) with item = Cc1c(S(=O)(=O)NC(C)c2ccccc2)c(=O)n(C)c(=O)n1C (stereo unspecified)
inactive

// outcome(item) with item = `O=C(c1cc2ccccc2s1)N1CCN(c2ccccn2)CC1`
inactive

// outcome(item) with item = `Cc1c(CCC(=O)N[C@@H](CC(C)C)C(=O)O)c(=O)oc2c(C)c3oc4c(c3cc12)CCCC4`
inactive

// outcome(item) with item = `CC(C)Cc1nnc(NC(=O)CN2C(=O)NC3(CCCCC3)C2=O)s1`
inactive

----------
SYSTEM_UNDER_TEST: Phosphoethanolamine/phosphocholine phosphatase (Homo sapiens)
ASSAY_REMARKS: PubChem AID 1565
REPORTED_CONDITIONS: recombinant PHOSPHO1, absorbance phosphatase assay; at 13.3 µM
The campaign covered roughly 290,000 compounds. About 3,200 (1.1%) were called active. No stated cut-off is given here; in the data, active means inhibition above about 60%; inactive means the rest. The entries come from a sample that favours actives as a whole.
Write down one outcome, taken from active, inactive

Consider the worked cases shown below.
// outcome(item) with item = `O=C(CSc1nnc2scc(-c3ccc(F)cc3)n12)NCc1ccco1`
active

// outcome(item) with item = `CCCCNC(=O)CN1C(=O)NC(Cc2ccccc2)(Cc2ccccc2)C1=O`
inactive

// outcome(item) with item = `COc1cccc(C(=O)Nc2nnc(S(=O)(=O)N(C)c3ccccc3)s2)c1`
inactive

More entries:
// outcome(item) with item = `CC(=O)NCC(=O)N1CCC(n2nccc2NC(=O)CCCc2ccccc2)CC1`
active

// outcome(item) with item = `O=C(Nc1ccncc1)c1ccc([N+](=O)[O-])cc1Cl`
inactive

// outcome(item) with item = `Cc1cc(NC(=O)c2ccccc2C)no1`
inactive

// outcome(item) with item = CC(Oc1ccc2ccccc2c1)C(=O)NNC(=S)NC(=O)c1ccco1 (stereo not drawn)
active

Numbers sourced from PubChem BioAssay AID1565.
